Experimental System: T1, Human Scribble (SCRIB) PDZ2 domain (860-950) (human, UniProt Q14160 860-950)
T1 sequence: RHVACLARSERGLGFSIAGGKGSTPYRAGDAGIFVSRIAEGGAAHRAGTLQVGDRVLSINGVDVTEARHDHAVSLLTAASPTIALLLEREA
Experiment Notes: ITC
Measured Property: pKd
Answers are plain numbers, as −log10 of the molar value.

Briefly, pKd measured for RSWFETWV [Superpeptide (RSWFETWV)] : 5.66
